Every entry's value here was drawn from ChEMBL document CHEMBL1147195.

Notes on Ki obtained with Protein kinase C alpha type (Homo sapiens).

1. NC1=NC(=O)/C(=C/c2ccc3ncccc3c2)S1: > 2000 nM

Now examine the next entry.
Would you mind telling me what Ki value was observed for O=C1N=C(N[C@@H]2C[C@H]2c2ccccc2)S/C1=C\c1ccc2ncccc2c1 ?
> 2000 nM

====

- measurement-target: Tyrosine-protein kinase Fyn (Homo sapiens)
- Sequence (P06241 whole entry): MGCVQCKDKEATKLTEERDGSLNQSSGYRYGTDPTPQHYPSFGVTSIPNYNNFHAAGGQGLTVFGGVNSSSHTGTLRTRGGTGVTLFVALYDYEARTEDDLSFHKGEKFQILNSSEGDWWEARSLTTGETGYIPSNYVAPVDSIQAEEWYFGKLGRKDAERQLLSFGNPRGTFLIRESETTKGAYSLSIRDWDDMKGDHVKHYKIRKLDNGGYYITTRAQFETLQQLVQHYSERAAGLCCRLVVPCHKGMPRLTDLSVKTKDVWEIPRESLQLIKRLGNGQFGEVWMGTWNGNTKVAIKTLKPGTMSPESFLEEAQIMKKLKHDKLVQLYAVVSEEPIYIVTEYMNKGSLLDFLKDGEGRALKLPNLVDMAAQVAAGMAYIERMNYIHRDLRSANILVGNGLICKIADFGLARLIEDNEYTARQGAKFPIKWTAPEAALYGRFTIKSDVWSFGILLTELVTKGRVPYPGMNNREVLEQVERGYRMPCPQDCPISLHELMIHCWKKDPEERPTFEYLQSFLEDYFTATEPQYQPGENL
measured-parameter: Ki

Endpoint output: Ki of O=C1N=C(NCc2cccs2)S/C1=C\c1ccc2ncccc2c1 . Value?
> 2 µM

====

Listed here: compounds with reported Ki for Cyclin-dependent kinase 2 (Homo sapiens).

1. NC1=NC(=O)/C(=C/c2ccc3ncccc3c2)S1: 2000 nM

Would you kindly share the measured Ki for O=C1N=C(N[C@@H]2C[C@H]2c2ccccc2)S/C1=C\c1ccc2ncccc2c1 ?
> 2000 nM

====

- measurement-target: Ribosomal protein S6 kinase alpha-3 (Homo sapiens)
- Sequence (P51812 whole entry): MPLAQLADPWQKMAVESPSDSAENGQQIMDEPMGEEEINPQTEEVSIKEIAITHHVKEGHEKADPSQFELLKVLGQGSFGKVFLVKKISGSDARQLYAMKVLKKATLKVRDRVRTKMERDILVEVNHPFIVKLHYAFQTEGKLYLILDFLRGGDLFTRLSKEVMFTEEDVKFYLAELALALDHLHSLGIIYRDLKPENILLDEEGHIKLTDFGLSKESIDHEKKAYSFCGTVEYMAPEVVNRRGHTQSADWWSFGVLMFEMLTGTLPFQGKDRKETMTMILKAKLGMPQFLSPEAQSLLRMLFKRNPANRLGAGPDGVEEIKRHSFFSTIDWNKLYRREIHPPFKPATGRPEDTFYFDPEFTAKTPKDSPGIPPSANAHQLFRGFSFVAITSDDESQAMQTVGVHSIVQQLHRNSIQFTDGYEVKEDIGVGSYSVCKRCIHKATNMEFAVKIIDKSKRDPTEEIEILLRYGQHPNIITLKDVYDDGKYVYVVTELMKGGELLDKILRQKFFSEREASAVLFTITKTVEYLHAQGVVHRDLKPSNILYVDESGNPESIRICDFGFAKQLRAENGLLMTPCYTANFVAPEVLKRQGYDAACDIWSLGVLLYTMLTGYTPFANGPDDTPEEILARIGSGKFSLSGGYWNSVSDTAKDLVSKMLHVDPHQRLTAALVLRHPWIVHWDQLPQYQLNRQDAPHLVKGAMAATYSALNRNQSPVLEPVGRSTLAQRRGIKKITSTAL
pKi: −log10 of the molar value.
measured-parameter: pKi

Give recorded pKi with Ribosomal protein S6 kinase alpha-3 (Homo sapiens) for the following compound: NC1=NC(=O)/C(=C/c2ccc3ncccc3c2)S1
< 5.70

====

- measurement-target: Protein kinase C delta type (Homo sapiens, UniProt Q05655)
- Sequence (Q05655 whole entry): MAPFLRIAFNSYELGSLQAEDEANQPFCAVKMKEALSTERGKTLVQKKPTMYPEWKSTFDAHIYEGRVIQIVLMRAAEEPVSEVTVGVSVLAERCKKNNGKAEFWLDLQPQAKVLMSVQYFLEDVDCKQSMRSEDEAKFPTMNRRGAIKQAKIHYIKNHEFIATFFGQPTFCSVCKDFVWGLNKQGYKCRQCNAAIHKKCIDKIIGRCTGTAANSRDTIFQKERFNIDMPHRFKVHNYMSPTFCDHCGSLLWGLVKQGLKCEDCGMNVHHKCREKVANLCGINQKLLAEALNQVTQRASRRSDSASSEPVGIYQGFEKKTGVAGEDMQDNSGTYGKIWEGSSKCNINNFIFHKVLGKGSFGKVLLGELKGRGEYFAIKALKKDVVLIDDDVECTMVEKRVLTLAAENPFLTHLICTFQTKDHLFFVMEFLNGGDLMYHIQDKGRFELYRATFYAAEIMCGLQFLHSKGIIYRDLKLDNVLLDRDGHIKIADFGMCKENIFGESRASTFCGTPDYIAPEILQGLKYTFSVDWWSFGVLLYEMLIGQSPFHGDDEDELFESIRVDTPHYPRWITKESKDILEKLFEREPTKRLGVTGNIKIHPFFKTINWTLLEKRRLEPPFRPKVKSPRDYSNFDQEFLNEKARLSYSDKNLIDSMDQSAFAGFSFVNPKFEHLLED
- experimental-details: Inhibition of PKCd
measured-parameter: Ki (nM)
Numbers only, in nM.

1) O=C1N=C(N[C@@H]2C[C@H]2c2ccccc2)S/C1=C\c1ccc2ncccc2c1: 480
2) NC1=NC(=O)/C(=C/c2ccc3ncccc3c2)S1: 1700

Query compound follows.
Sample O=C1N=C(NCc2cccs2)S/C1=C\c1ccc2ncccc2c1 — what was its Ki?
320

====

Field: pKi. Provide a value for each of the compounds that follow.
- measurement-target: Mitogen-activated protein kinase 1 (Homo sapiens, UniProt P28482)
- Sequence (P28482 whole entry): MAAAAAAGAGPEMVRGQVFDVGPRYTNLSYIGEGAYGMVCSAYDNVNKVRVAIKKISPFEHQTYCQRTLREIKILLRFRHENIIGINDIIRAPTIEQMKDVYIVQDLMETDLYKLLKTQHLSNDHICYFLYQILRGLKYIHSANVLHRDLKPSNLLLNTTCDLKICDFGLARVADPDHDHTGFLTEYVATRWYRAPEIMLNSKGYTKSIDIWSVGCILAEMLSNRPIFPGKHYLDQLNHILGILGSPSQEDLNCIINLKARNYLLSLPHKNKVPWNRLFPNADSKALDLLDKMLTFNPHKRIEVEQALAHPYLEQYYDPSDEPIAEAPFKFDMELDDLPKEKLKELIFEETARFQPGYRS
- experimental-details: Inhibition of ERK
One number for each entry, as −log10 of the molar value.

1) O=C1N=C(NCc2cccs2)S/C1=C\c1ccc2ncccc2c1: 5.70

Please give the measured pKi for this compound: O=C1N=C(N[C@@H]2C[C@H]2c2ccccc2)S/C1=C\c1ccc2ncccc2c1
6.66

====

- experimental-details: Inhibition of CDK1/cyclinB
- Parameters: species or system Homo sapiens
measured-parameter: pKi
One number for each entry, as −log10 of the molar value.

Examples from the recorded data:
1) O=C1N=C(NCCc2ccc(Cl)cc2)S/C1=C\c1ccc2ncccc2c1: 6.39
2) O=C1N=C(NC2CC2)S/C1=C\c1ccc2ncccc2c1: 6.57
3) O=C1N=C(NCc2ccccc2)S/C1=C\c1ccc2ncccc2c1: 6.82
4) COc1ccccc1CCNC1=NC(=O)/C(=C/c2ccc3ncccc3c2)S1: 7.20
5) O=C1N=C(NCCc2ccc(F)cc2)S/C1=C\c1ccc2ncccc2c1: 7.21
6) COc1ccc(CCNC2=NC(=O)/C(=C/c3ccc4ncccc4c3)S2)cc1: 6.41
7) O=C1N=C(NCCc2ccccc2Cl)S/C1=C\c1ccc2ncccc2c1: 7.34
8) O=C1N=C(NCc2ccccn2)S/C1=C\c1ccc2ncccc2c1: 6.51
9) O=C1N=C(NCc2ccccc2Cl)S/C1=C\c1ccc2ncccc2c1: 7.28

Now turn to the next compound.
Which measured pKi value corresponds to O=C1N=C(N[C@@H](CO)Cc2ccccc2)S/C1=C\c1ccc2ncccc2c1 ?
6.64

====

- experimental-details: Inhibition of CDK1/cyclinB
- Set-up: species or system Homo sapiens
measured-parameter: Ki (nM)
Numbers only, in nM.

# count of solved cases: 3
1. O=C1N=C(NCc2c(Cl)cccc2Cl)S/C1=C\c1ccc2ncccc2c1: 1040
2. O=C1N=C(NCC(CO)c2ccccc2)S/C1=C\c1ccc2ncccc2c1 (stereo not given): 390
3. COc1ccccc1CNC1=NC(=O)/C(=C/c2ccc3ncccc3c2)S1: 86

Please examine the following record next.
Would you mind telling me what Ki value was observed for O=C1N=C(N[C@@H](CO)c2ccccc2)S/C1=C\c1ccc2ncccc2c1 ?
350
